- EXPERIMENTAL TARGET: RORgT (Homo sapiens)
- Construct: Gal4 (fusion partner); expressed in transfected cells; host or cells: engineered Jurkat cells (Jurkat pEx/Gal/hRORγ CLBD/HYG pG5luc/blast)
- Sequence (P51449 267-516): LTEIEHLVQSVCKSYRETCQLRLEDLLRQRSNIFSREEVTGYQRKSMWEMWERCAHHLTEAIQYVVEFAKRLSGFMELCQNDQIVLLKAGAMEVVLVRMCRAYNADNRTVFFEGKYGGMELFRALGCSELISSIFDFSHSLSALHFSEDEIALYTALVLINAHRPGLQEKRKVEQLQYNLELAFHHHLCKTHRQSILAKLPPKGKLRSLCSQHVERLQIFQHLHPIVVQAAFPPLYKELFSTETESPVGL
- ASSAY SUMMARY: RORgT Gal4 Luciferase Reporter Gene Assay
- Format: cell-based
- CONDITION NOTES: engineered Jurkat cells overexpressing RORgT (LBD or full length) with Gal4 Luc reporter; 18 hours at 37° C.; 40 μM to 0.67 nM; read-out: RORg_GAL4 EC50
METRIC: pEC50
The scale used: pEC50 is minus the common logarithm of the concentration in molar units.

Example compounds with recorded pEC50:
>>> observed_result("COc1ccc(Oc2c(Cl)cc(NC(=O)C(O)c3cccnc3)cc2Cl)cc1C(C)C (centres unmarked) [Example 247]")
6.94
>>> observed_result("COc1ccc(Oc2c(Cl)cc(NC(=O)c3c[nH]c4ncccc34)cc2Cl)cc1C(C)C [Example 349]")
5.86
>>> observed_result("CNC(=O)c1ccc(CNC(=O)c2ccc(Cl)c(Oc3ccc(OC)c(C(C)C)c3)c2Cl)cc1 [Example 102]")
6.34
>>> observed_result("COc1ccc(Oc2c(Cl)ccc(C(=O)NCC3CCS(=O)(=O)CC3)c2Cl)cc1C(C)C [Example 100]")
6.93
>>> observed_result("COc1ncc(Oc2c(Cl)cc(NC(=O)CC3CCN(S(=O)(=O)C(C)C)CC3)cc2Cl)cc1C(C)C [Example 24]")
7.35

May I ask what pEC50 has been recorded for COc1ccc(Oc2c(Cl)cc(NC(=O)CCn3ccnc3)cc2Cl)cc1C(C)C [Example 297] ? 7.36

May I ask what pEC50 has been recorded for COc1ccc(Oc2c(Cl)ccc(CNS(=O)(=O)c3cccnc3)c2Cl)cc1C(C)C [Example 21] ? 6.19

The reported numbers originate from patent US20220306630A1.
